Origin of measurements: patent US20240116985A1

- TESTED_SYSTEM: full-length beta-Catenin (Uniprot ID P35222) (Homo sapiens (Human)) (UniProt P35222)
- Sequence (P35222 2-781 limits assumed): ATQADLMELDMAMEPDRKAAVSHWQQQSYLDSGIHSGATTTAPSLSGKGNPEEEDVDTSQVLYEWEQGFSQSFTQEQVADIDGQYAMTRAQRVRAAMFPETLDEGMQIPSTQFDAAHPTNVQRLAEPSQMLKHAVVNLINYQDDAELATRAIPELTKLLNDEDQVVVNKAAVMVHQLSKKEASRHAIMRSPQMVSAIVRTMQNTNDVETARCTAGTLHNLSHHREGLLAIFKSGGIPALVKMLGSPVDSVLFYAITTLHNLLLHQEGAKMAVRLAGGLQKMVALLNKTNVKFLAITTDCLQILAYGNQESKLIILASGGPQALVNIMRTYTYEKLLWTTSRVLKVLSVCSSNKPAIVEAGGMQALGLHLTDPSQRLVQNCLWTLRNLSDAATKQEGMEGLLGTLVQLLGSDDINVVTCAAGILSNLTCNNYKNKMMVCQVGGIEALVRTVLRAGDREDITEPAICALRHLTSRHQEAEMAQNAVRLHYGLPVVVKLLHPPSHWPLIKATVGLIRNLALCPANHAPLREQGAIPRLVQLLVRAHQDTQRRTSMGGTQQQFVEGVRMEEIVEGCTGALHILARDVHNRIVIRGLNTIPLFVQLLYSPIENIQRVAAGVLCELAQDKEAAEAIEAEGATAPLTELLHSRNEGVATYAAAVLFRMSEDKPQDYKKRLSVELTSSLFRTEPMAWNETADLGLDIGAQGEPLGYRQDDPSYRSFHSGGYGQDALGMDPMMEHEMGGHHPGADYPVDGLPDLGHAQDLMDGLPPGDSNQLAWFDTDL
- MEASUREMENT_PROTOCOL: fluorescence polarization competition; full-length beta-catenin + 5FAM-TCF4(10-53) probe as competitor
Starred links: 1 amine or outer side, 2 acyl side, 3 side chain; linkers in the order of their positions; H or OH if unused. Positions of bridges follow the written chain, without caps; N, C: chain ends. Non-standard residues stand in square brackets, D forms with d. Primed or numbered codes have the meaning given here. PyrS2″ = (S)-3-amino-1-((pent-4-en-1-yloxy)carbonyl)pyrrolidine-3-carboxylic acid (stapling residue), C=CCCCOC(=O)N1CC[C@@](N[*:1])(C(=O)[*:2])C1; B5(4) = 2,2-bis(4-pentenyl)glycine = 2-amino-2-(pent-4-en-1-yl)hept-6-enoic acid (stitching residue), C=CCCCC(CCCC=C)(N[*:1])C(=O)[*:2]; B5(5) = 2,2-bis(4-pentenyl)glycine, 2-amino-2-(pent-4-en-1-yl)hept-6-enoic acid (stitching residue), C=CCCCC(CCCC=C)(N[*:1])C(=O)[*:2]; Phe(2-Cl) = N[C@@H](Cc1ccccc1Cl)C(=O)O; Phe(2-OMe) = COc1ccccc1C[C@H](N)C(=O)O; Phe(2-F) = N[C@@H](Cc1ccccc1F)C(=O)O; Bta = N[C@@H](Cc1csc2ccccc12)C(=O)O; αAllylPro = C=CC[C@@]1(C(=O)O)CCCN1; tBuAla = CC(C)(C)C[C@H](N)C(=O)O; Cha = N[C@@H](CC1CCCCC1)C(=O)O; S8 = C=CCCCCCC[C@](C)(N)C(=O)O
EXPERIMENTAL_READOUT: pEC50
The read-out pEC50 is expressed as -log10 of concentration in moles per litre.

query: Supply reported pEC50 belonging to this binder: Ac-[αAllylPro]D[Cha][B5(5)]DDAAFS[PyrS2″][Phe(2-OMe)][Bta]S-NH2 (staple 1-4, 4-11) [I-1104]
result: 8.00

query: Give pEC50 for Ac-[αAllylPro]D[Cha][B5(5)]DDAAFS[PyrS2″][Phe(2-F)][Bta]S-NH2 (staple 1-4, 4-11) [I-1102]
result: 7.80

query: Given the binder Ac-[αAllylPro]D[tBuAla][B5(5)]DEAAFL[S8][Phe(2-Cl)][Bta]Q-NH2 (staple 1-4, 4-11) [I-1096] , write its reported pEC50.
result: 7.77

query: Return reported pEC50. Input binder: Ac-[αAllylPro]D[tBuAla][B5(4)]DDAAFT[S8][Phe(2-Cl)][Bta][dT]-NH2 (staple 1-4, 4-11) [I-1092]
result: 7.59
